- measuredTarget: Mcl-1 (myeloid cell leukemia-1) (Homo sapiens, UniProt Q07820)
- Sequence (Q07820 172-327): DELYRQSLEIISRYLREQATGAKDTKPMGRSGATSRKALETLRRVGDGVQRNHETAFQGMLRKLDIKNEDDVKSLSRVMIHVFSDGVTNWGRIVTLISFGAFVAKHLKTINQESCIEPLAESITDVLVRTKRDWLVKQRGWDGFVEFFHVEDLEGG
- measurementNotes: 1H-15N HSQC NMR titration
- Format: binding
pKd: −log10 of the molar value.
observable: pKd

Q: Entry under review: "O=C(O)c1ccc(-n2nc(-c3ccccc3O)nc2-c2ccccc2O)cc1" . Reported pKd?
A: ~3.52

----------
- measuredTarget: Mcl-1 (myeloid cell leukemia-1) (Homo sapiens)
- measurementNotes: 1H-15N HSQC NMR titration
- Type: binding
observable: Kd

Q: // query Kd value for entry Cc1cccc(Nc2ccncc2S(=O)(=O)NC(=O)NC(C)C)c1 [Torsemide]
A: ~1000 µM

Source: paper PMC8688747
